Taken from the supplement of paper PMC6555819.

Test system: PXR:RXRa (NR concentration 270 nM, RXRa partner concentration 90 nM)
PROCEDURE SUMMARY: PBM binding z-score (relative to random genomic background probes); higher = stronger binding; sequences stand for … in GC…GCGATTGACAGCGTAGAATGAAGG
For each record, write down the corresponding PBM binding z-score.
Answer with the value's number alone.

Kindly state the measured PBM binding z-score obtained for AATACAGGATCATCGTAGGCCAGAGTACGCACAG with PXR:RXRa (NR concentration 270 nM, RXRa partner concentration 90 nM).
0.111

Kindly state the measured PBM binding z-score obtained for ATCACTAGGTAAAAGTTCAGTGAATCCCGAGGAT with PXR:RXRa (NR concentration 270 nM, RXRa partner concentration 90 nM).
2.08

Kindly state the measured PBM binding z-score obtained for AATATTAGTTGACTTAGGGCAACCGATACGACGC with PXR:RXRa (NR concentration 270 nM, RXRa partner concentration 90 nM).
0.143

Kindly state the measured PBM binding z-score obtained for TCTGCTAGGTCAACGATGGTCGGCTAATCTGCTA with PXR:RXRa (NR concentration 270 nM, RXRa partner concentration 90 nM).
1.22

Kindly state the measured PBM binding z-score obtained for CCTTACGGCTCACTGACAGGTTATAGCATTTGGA with PXR:RXRa (NR concentration 270 nM, RXRa partner concentration 90 nM).
0.158

Kindly state the measured PBM binding z-score obtained for CCTACTGGGCCAAGGTCATTGTTCAGTCAAAGCA with PXR:RXRa (NR concentration 270 nM, RXRa partner concentration 90 nM).
3.62
